Let's look at some molecules and their measured DC50.
biological target: SMARCA2 (Homo sapiens, UniProt P51531); assay: MSD SMARCA2 degradation in A549 cell line; format: cell-based; details: A549 cells, 24 h, read-out: SMARCA2 MSD A549 degradation 24 h: Average external-Abs DC50
Sequence (P51531 whole entry): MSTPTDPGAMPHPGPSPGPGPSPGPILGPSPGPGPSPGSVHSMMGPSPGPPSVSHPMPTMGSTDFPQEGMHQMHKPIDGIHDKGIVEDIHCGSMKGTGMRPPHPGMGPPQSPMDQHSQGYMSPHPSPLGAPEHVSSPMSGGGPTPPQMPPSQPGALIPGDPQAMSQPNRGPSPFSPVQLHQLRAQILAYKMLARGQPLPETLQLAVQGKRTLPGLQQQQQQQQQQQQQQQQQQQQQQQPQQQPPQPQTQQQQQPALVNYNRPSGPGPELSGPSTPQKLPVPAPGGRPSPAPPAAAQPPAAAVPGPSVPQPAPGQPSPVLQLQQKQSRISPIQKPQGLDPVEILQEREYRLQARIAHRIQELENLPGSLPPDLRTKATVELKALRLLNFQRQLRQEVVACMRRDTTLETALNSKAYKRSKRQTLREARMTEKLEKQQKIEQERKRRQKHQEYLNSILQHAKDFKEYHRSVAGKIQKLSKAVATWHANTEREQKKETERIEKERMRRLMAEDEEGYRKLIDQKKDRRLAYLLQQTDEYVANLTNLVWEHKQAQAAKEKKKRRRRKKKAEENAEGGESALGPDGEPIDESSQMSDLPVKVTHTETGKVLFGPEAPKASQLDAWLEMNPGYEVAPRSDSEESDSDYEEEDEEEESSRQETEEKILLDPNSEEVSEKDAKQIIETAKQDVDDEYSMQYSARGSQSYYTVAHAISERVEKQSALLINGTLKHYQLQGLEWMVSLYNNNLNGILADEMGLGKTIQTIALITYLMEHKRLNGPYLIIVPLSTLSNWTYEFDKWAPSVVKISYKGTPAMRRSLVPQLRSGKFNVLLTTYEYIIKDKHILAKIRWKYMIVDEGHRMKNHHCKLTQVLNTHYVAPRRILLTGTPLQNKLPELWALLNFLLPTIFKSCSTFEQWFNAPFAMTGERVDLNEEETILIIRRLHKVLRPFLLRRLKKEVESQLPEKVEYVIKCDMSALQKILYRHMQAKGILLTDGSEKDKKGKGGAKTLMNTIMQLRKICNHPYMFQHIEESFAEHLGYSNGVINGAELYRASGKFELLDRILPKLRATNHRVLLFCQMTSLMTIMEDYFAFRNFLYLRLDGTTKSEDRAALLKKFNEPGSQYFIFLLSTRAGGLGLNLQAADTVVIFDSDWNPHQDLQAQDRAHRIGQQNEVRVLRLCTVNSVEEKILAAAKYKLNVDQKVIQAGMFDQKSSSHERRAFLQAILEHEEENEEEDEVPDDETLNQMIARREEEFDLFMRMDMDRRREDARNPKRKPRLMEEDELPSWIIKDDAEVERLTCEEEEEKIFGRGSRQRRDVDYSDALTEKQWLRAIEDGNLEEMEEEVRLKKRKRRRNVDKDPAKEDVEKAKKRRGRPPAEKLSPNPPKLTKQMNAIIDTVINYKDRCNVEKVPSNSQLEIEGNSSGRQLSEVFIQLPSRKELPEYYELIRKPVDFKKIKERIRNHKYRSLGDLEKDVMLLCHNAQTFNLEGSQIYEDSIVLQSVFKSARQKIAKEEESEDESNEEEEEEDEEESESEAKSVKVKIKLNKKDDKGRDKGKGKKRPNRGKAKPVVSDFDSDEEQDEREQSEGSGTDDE

MOLECULE	DC50
C#Cc1ccc(CNC(=O)[C@@H]2C[C@@H](O)CN2C(=O)[C@@H](NC(=O)[C@H]2CC3(C2)C[C@H](N2CCC(N4CCC(N5CCN6c7cc(-c8ccccc8O)nnc7NC[C@H]6C5)CC4)CC2)C3)C(C)(C)C)c(O)c1 (single isomer, unassigned) [I-241]	50 to 100 nM

// moving on: another record for DC50
Please give the documented DC50 of Cc1ncsc1-c1ccc(CNC(=O)[C@@H]2C[C@@H](O)CN2C(=O)C(c2cc(N3CC4(CC(N5CCC(c6cnc(N7CCc8[nH]c9nnc(-c%10ccccc%10O)cc9c8[C@H]7C)nc6)CC5)C4)C3)no2)C(C)C)cc1 (single isomer, unassigned)
10 to 50 nM
